Data origin, for the record: patent US5866576A

# System: murine splenocytes
# METHOD: murine splenocyte proliferation co-stimulated by anti-mu and IL-4 (FIG. 11)
# Type: cell-based
# TEST SETTINGS: Mus musculus, anti-mu / IL-4 12.5 ng/ml
OBSERVABLE: IC50 (µM)
Could you give me the number in µM? Just the number is fine.

Example results:
[[record]]
molecule = "Cn1c(=O)n(CCCCC2CO2)c(=O)c2[nH]cnc21 (stereo not shown)"
unit_descriptor = "µM"
value = 31

[[record]]
molecule = "Cn1cnc2c1c(=O)n(CCCCCCCCC1CO1)c(=O)n2C (stereo not shown)"
unit_descriptor = "µM"
value = 40

[[record]]
molecule = "Cn1cnc2c1c(=O)n(CCCCCCCC1CO1)c(=O)n2C (stereo not shown)"
unit_descriptor = "µM"
value = 29


Now consider a different molecule.
Ask: Record request: IC50 value, item Cn1cnc2c1c(=O)n(CCCCCC[C@H]1CO1)c(=O)n2C [Compound 1553S]
Reply: 50

###

# Test system: thymocytes
# METHOD: murine thymocyte proliferation assay co-stimulated by ConA and IL-2 (FIGS. 7A-7E)
# Type: cell-based, Balb/C mice
# TEST SETTINGS: Mus musculus, FIG. 7A
OBSERVABLE: IC50 (µM)
Could you give me the number in µM? Just the number is fine.

Ask: Record request: IC50 value, item Cn1c(=O)n(CCCCC2CO2)c(=O)c2c1ncn2COC(=O)C(C)(C)C (centres unmarked)
Reply: 68

Ask: Record request: IC50 value, item Cn1ccc(=O)n(CCCCC2CO2)c1=O (centres unmarked)
Reply: 99

###

# Test system: normal human bone marrow stromal cells (MSC)
# METHOD: human bone marrow stromal cell (MSC) proliferation in response to PDGF BB and IL-1α
# Format: cell-based
# TEST SETTINGS: Table III, PDGF BB 50 ng/ml and IL-1α 10 ng/ml
pIC50: −log10 of the molar value.
Values of pIC50 greater than or equal to 5 map to Condition met; values below map to Condition not met.

As a guide, the following entries are already answered.
[[record]]
molecule = "Cn1cnc2c1c(=O)n(CCCCCCCCC1CO1)c(=O)n2C (stereo not shown)"
label = "Condition not met"

[[record]]
molecule = "Cn1cnc2c1c(=O)n(CCCCCCCCCC1CO1)c(=O)n2C (stereo not shown)"
label = "Condition not met"

[[record]]
molecule = "Cn1cnc2c1c(=O)n(CCCCCCCCCCC1CO1)c(=O)n2C (stereo not shown)"
label = "Condition not met"

[[record]]
molecule = "C=CCCCCn1c(=O)c2c(ncn2C)n(C)c1=O"
label = "Condition not met"

[[record]]
molecule = "Cn1cnc2c1c(=O)n(CCCCCCCC1CO1)c(=O)n2C (stereo not shown)"
label = "Condition met"


Ask: Dear colleague, could you confirm whether O=C1Cc2ccccc2C(=O)N1CCCCCCCCCC1CO1 (stereo not shown) [Compound 1114, N-(10,11-Oxidoundecyl) homophthalimide] has pIC50 at or above 5?
Reply: Condition met

###

// reported pIC50 for each item listed
# System: normal human bone marrow stromal cells (MSC)
# METHOD: human bone marrow stromal cell (MSC) proliferation in response to PDGF BB and IL-1α
# Assay type: cell-based
# TEST SETTINGS: Table III, PDGF BB 50 ng/ml and IL-1α 10 ng/ml
Please note pIC50 is a logarithmic value: minus log10 of concentration in mol/L. Answer with that number alone.

Ask: Record request: pIC50 value, item C[C@@H](CCCn1c(=O)c2c(ncn2C)n(C)c1=O)CCC1OC1(C)C (stereo partly shown) [Compound 2548R]
Reply: 5.06
